# TARGET SYSTEM: PRKACB (human) (UniProt P22694)
# PROTOCOL: split-luciferase competition binding
# MEASUREMENT SETUP: compound 10.0 µM
OUTCOME MEASURE: inhibition (%)

A selection of reference data follows.
[
  {
    "CHEMICAL STRUCTURE": "O=c1cc(N2CCOCC2)nc2c3ccccc3ccn12",
    "OUTCOME MEASURE": "inhibition",
    "EXPERIMENTAL RESULT": 0
  },
  {
    "CHEMICAL STRUCTURE": "O=c1cc(N2CCOCC2)oc2c(-c3ccccc3)cccc12",
    "OUTCOME MEASURE": "inhibition",
    "EXPERIMENTAL RESULT": 0
  }
]

I: Cc1ccc(NC(=O)c2cccc(N(C)C)c2)cc1NC(=O)c1ccc(O)cc1
II: CC(C)[C@H](CO)Nc1nc(Nc2cc(N)cc(Cl)c2)c2ncn(C(C)C)c2n1
III: CS(=O)(=O)CCNCc1nc(-c2ccc3ncnc(Nc4ccc(OCc5cccc(F)c5)c(Cl)c4)c3c2)cs1
[Q] # rank by inhibition, ascending (min first) Return value: ordered labels per request.
[A] I, II, III

Source listed as the kinase profiling compilation of Christmann-Franck et al. (2016).
